# System: Mycobacterium tuberculosis
# Assay Summary: Cornell M. t heat shock assay; note: in the data most compounds retested in dose-response had high values
# Assay type: functional, organism-based
# Set-up: dose or concentration left out as unconfirmed
In all, about 69,000 compounds went through this assay and about 950 (1.4%) showed an effect of 50% or more. What follows is part of a selection rich in strong results, with near analogues and random picks from the rest.
Recorded Percent Effect for the following compounds

Compound: CN(CC1CCN(c2ccccc2)C1)c1ccc(Cn2ccnc2)cn1 (stereo not drawn)
Measurement Target: Mycobacterium tuberculosis
Measure Unit: %
Percent Effect: 105.3

Compound: CCOC1COC2(CCN(c3cccc(C)n3)CC2)C1.O=C(O)C(F)(F)F (stereo not drawn)
Measurement Target: Mycobacterium tuberculosis
Measure Unit: %
Percent Effect: -0.3848

Compound: Cc1cc(Oc2ccc(NC(=O)C3CC3)cc2)cc(C2CCNCC2)n1.Cl
Measurement Target: Mycobacterium tuberculosis
Measure Unit: %
Percent Effect: 4.147

Compound: CN(CCc1ccccn1)C(=O)c1cnn(-c2ccccc2F)c1N
Measurement Target: Mycobacterium tuberculosis
Measure Unit: %
Percent Effect: 25.3

Compound: CN(C)S(=O)(=O)NCc1nc(-c2cccc(F)c2)c(-c2ccccn2)[nH]1
Measurement Target: Mycobacterium tuberculosis
Measure Unit: %
Percent Effect: 62.81

Compound: Cn1cc(-c2ncnc3c2CCN(CC2CCOC2)CC3)cn1.O=C(O)C(F)(F)F (stereo not drawn)
Measurement Target: Mycobacterium tuberculosis
Measure Unit: %
Percent Effect: 17.32

Compound: COCC1CC2(CCN(c3cccc(C)n3)CC2)CN1C(C)C.O=C(O)C(F)(F)F.O=C(O)C(F)(F)F (stereo not drawn)
Measurement Target: Mycobacterium tuberculosis
Measure Unit: %
Percent Effect: 24.58

Compound: Cc1nnc2n1CCN(Cc1csc(-c3cnn(C)c3)n1)C2
Measurement Target: Mycobacterium tuberculosis
Measure Unit: %
Percent Effect: -22

Compound: CN1Cc2ccccc2CC2(CCN(CCO)CC2)C1=O.O=C(O)C(F)(F)F
Measurement Target: Mycobacterium tuberculosis
Measure Unit: %
Percent Effect: 19.63

Compound: Br.O=C(O)c1csc(NCCc2ccccc2)n1
Measurement Target: Mycobacterium tuberculosis
Measure Unit: %
Percent Effect: 78.91

Compound: CN(C)S(=O)(=O)NCc1cccnc1Oc1ccccc1F
Measurement Target: Mycobacterium tuberculosis
Measure Unit: %
Percent Effect: 7.179

Compound: Cc1nc(CN2CCO[C@H]3[C@@H](OCc4cccnc4)CC[C@@H]32)cs1.O=C(O)C(F)(F)F.O=C(O)C(F)(F)F
Measurement Target: Mycobacterium tuberculosis
Measure Unit: %
Percent Effect: -27.98

Compound: Cc1ccsc1CN1CCn2c(COc3cccnc3)cnc2C1C.O=C(O)C(F)(F)F.O=C(O)C(F)(F)F (stereo not drawn)
Measurement Target: Mycobacterium tuberculosis
Measure Unit: %
Percent Effect: 9.479

Compound: CCc1nnc2n1CCN(Cc1csc(-c3ccc(C)o3)n1)C2
Measurement Target: Mycobacterium tuberculosis
Measure Unit: %
Percent Effect: 49.84

Compound: O=S(=O)(N1CCOCC1)N1CCCC(c2ccccn2)C1 (stereo not drawn)
Measurement Target: Mycobacterium tuberculosis
Measure Unit: %
Percent Effect: -20.74

Compound: Cc1ccc(-c2nc(CN3CCn4c(C)nnc4C3)cs2)o1
Measurement Target: Mycobacterium tuberculosis
Measure Unit: %
Percent Effect: -2.255

Compound: CCn1ncc2c1CN(C(=O)c1cscn1)CC2COC.O=C(O)C(F)(F)F (stereo not drawn)
Measurement Target: Mycobacterium tuberculosis
Measure Unit: %
Percent Effect: 5.615

Compound: Cc1nc(-c2ccc(CNS(=O)(=O)N(C)C)cc2)ccc1C(N)=O
Measurement Target: Mycobacterium tuberculosis
Measure Unit: %
Percent Effect: 10.37

Compound: O=C(c1cscn1)N1CC[C@H]2C[C@H](c3nnc(C4CC4)o3)O[C@@H]2C1
Measurement Target: Mycobacterium tuberculosis
Measure Unit: %
Percent Effect: 27.2

Compound: Cc1nnc2n1CCN(Cc1csc(-c3ccsc3)n1)C2
Measurement Target: Mycobacterium tuberculosis
Measure Unit: %
Percent Effect: -0.9289

Compound: O=C(c1ccoc1)N1CC[C@H]2C[C@@H](c3nnc(C4CC4)o3)O[C@@H]2C1
Measurement Target: Mycobacterium tuberculosis
Measure Unit: %
Percent Effect: 19.79

Compound: O=C(N1CCCO1)[C@@]12CCO[C@@H]1CCN(Cc1ccc(F)cc1)C2.O=C(O)C(F)(F)F
Measurement Target: Mycobacterium tuberculosis
Measure Unit: %
Percent Effect: -15.72

Compound: CN(C)C(=O)CN1CCOCC2(C1)CN(c1ncccn1)CCO2.O=C(O)C(F)(F)F (stereo not drawn)
Measurement Target: Mycobacterium tuberculosis
Measure Unit: %
Percent Effect: -21.69

Compound: CC(C)N1CCCC(CN(C)c2ccc(Cn3ccnc3)cn2)C1 (stereo not drawn)
Measurement Target: Mycobacterium tuberculosis
Measure Unit: %
Percent Effect: -4.084

Compound: O=C(NCCc1ccccc1)NCC(O)c1cccs1 (stereo not drawn)
Measurement Target: Mycobacterium tuberculosis
Measure Unit: %
Percent Effect: 20.6

Compound: c1cc(-c2nc(CN3CCn4c(nnc4C4CC4)C3)cs2)cs1
Measurement Target: Mycobacterium tuberculosis
Measure Unit: %
Percent Effect: 159.7

Compound: O=C(c1ccccc1)N1CC[C@H]2C[C@H](c3nnc(C4CC4)o3)O[C@@H]2C1
Measurement Target: Mycobacterium tuberculosis
Measure Unit: %
Percent Effect: 57.91

Compound: Cc1cc(Cl)ccc1-n1ncc(C(=O)N(C)CCc2ccccn2)c1N
Measurement Target: Mycobacterium tuberculosis
Measure Unit: %
Percent Effect: 67.07

Compound: OC1CCN(C2CCN(c3ccc(Cn4ccnc4)cn3)CC2)CC1
Measurement Target: Mycobacterium tuberculosis
Measure Unit: %
Percent Effect: 13.23

Compound: Cc1ccsc1CN(c1nc(CCN)nc2ccccc12)C1CC1
Measurement Target: Mycobacterium tuberculosis
Measure Unit: %
Percent Effect: 91.12

Compound: CC(C)Cn1cc(C(=O)NC2CCS(=O)(=O)C2)c2ccccc2c1=O (stereo not drawn)
Measurement Target: Mycobacterium tuberculosis
Measure Unit: %
Percent Effect: 1.323

Compound: Cn1cccc1C(=O)N1CCO[C@@H]2CN(Cc3nccs3)C[C@@H]2C1.O=C(O)C(F)(F)F
Measurement Target: Mycobacterium tuberculosis
Measure Unit: %
Percent Effect: -1.358

Compound: CC(C)c1nnc2n1CCN(Cc1csc(-c3cnn(C)c3)n1)C2
Measurement Target: Mycobacterium tuberculosis
Measure Unit: %
Percent Effect: 2.86

Compound: NCCc1nc(N(Cc2cncs2)C2CC2)c2ccccc2n1
Measurement Target: Mycobacterium tuberculosis
Measure Unit: %
Percent Effect: -30.71

Compound: c1ccc(-c2nc(CN3CCn4c(nnc4C4CC4)C3)cs2)cc1
Measurement Target: Mycobacterium tuberculosis
Measure Unit: %
Percent Effect: 10.73

Compound: Cc1ccc(-c2nc(CN3CCn4c(nnc4C4CC4)C3)cs2)o1
Measurement Target: Mycobacterium tuberculosis
Measure Unit: %
Percent Effect: 171.6

Compound: O=C(c1cccs1)N1CC[C@H]2C[C@@H](c3nnc(C4CC4)o3)O[C@@H]2C1
Measurement Target: Mycobacterium tuberculosis
Measure Unit: %
Percent Effect: 56.75

Compound: CN1CC(=O)c2sc(NCCc3ccccc3)nc2C1
Measurement Target: Mycobacterium tuberculosis
Measure Unit: %
Percent Effect: -13.74

Compound: CN(C)S(=O)(=O)N1CC[C@]2(C[C@@H](Oc3cccnc3)CO2)C1.O=C(O)C(F)(F)F
Measurement Target: Mycobacterium tuberculosis
Measure Unit: %
Percent Effect: -11.53

Compound: c1sc(C2CCCC2)nc1CN1CCn2c(nnc2C2CC2)C1
Measurement Target: Mycobacterium tuberculosis
Measure Unit: %
Percent Effect: 55.31

Compound: Cc1ccc(C)c(-n2ncc(C(=O)N(C)CCc3ccccn3)c2N)c1
Measurement Target: Mycobacterium tuberculosis
Measure Unit: %
Percent Effect: 29.21

Compound: c1sc(C2CCCCC2)nc1CN1CCn2c(nnc2C2CC2)C1
Measurement Target: Mycobacterium tuberculosis
Measure Unit: %
Percent Effect: 7.076

Compound: CCCC1CCCN(Cc2csc(-c3cnn(C)c3)n2)CC1 (stereo not drawn)
Measurement Target: Mycobacterium tuberculosis
Measure Unit: %
Percent Effect: 101.6
